The measured values listed here are drawn from the RNAGym collection of RNA variant scans (doi:10.7554/elife.80360).

Kindly state self-cleavage for each of the entries shown.
B1: HDV Ribozyme (parent)
chain: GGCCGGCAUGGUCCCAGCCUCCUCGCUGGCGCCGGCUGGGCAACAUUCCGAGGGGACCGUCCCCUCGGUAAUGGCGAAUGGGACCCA

Variants of: B1
Experiment: self-cleavage, relative activity (ratio to wild type); higher = more cleavage; co-transcriptional
Form: value (number only, do not type unit).

self-cleavage in this record for GGCCGGCAUGGUCCCAGCCUCCUCGCUGGCGCCGGCUGGGCAACAUUCUUAGGGGACCGUCCCCUCGGUAAUGGCGAAUGGGACCCA [C49U G50U] : 0.941

So, UGCCUGCAUGGUCCCAGCCUCCUCGCUGGCGCCGGCUGGGCAACAUUCCGAGGGGACCGUCCCCUCGGUAAUGGCGAAUGGGACCCA [G1U G5U] ? Its self-cleavage was 0.402

Reported self-cleavage for GGCCGGCAUGGUCCCAGCCUCCUCGCUGGCGCCGGCUGGGCAACAUUCCGAGGGGUCCGUGCCCUCGGUAAUGGCGAAUGGGACCCA [A56U C61G] was 0.997

Looking up GGCCGGCAUGGUCCCAGCCUCCUCGCUGGGGCCGGCUGGGCAACAUUCCGAGGAGACCGUCCCCUCGGUAAUGGCGAAUGGGACCCA [C30G G54A] , I see its self-cleavage listed as 0.0811

According to the records, this variant UGCCGGCAUGGUCCCAGCCUCCUCGCUGGCGCCGGCUGGGCAACAUUCCGAGGGGACCGUCCCCUCGGUACUGGCGAAUGGGACCCA [G1U A71C] displays self-cleavage of 0.297

For this variant ( GGCCGGCAUGGUCCCAGCCUCCUCGCUGGCGCCGGCUGGGCAACCUUCCGAGGGGACCGUCCCCUCGGAAAUGGCGAAUGGGACCCA [A45C U69A] ), measured self-cleavage is 0.987

GET /value?item= GGCCGGCAUGGUACCAGCCUCCUCGCUGGCGCCGGCUGGGCAACAUUCCGAGGGGACCGUCCCCUCGGUAAUGGCGAAUGCGACCCA [C13A G81C] &field=self-cleavage returns 0

So, GGCCGGCAUGGUCCCAGCCUCCUCGCUGGCGCCGGCUGGGCAACAUUCCAAGGGGACCGUCCCCUCGGUAAUUGCGAAUGGGACCCA [G50A G73U] ? Its self-cleavage was 0.369

Item: GGCCGGCAUGGUCCCAGCCUCCUCGCUGGCGCCGGCUGCGCAACAUUCCGAGGGGACCGUCCCCUCGGUAAAGGCGAAUGGGACCCA [G39C U72A] | self-cleavage: 0.0426

What the record says about GGCCGGCAUGGUCCCAGCUUCCUCGCUGGCGCCGGCUGGGCAACAUUCCGAGGUGACCGUCCCCUCGGUAAUGGCGAAUGGGACCCA [C19U G54U] : self-cleavage is 0.174

Sample GGCCGGCAUUGUCCCAGCCUCCUCGCUGUCGCCGGCUGGGCAACAUUCCGAGGGGACCGUCCCCUCGGUAAUGGCGAAUGGGACCCA [G10U G29U] ; self-cleavage observed: 0.0475

Documented self-cleavage of GGCCGGCAUGGUCCCAGCCUCCUCGCUGGCGCCGGCUGGGCAAGAUUCCGAGGGGACCGUCCCCUCGGUAAUGCCGAAUGGGACCCA [C44G G74C] : 0.185

Recorded result, GACCGGCAUGGUCCCAGCCUCCUCGCUGGCGCCGGCUGGGCAACAUUACGAGGGGACCGUCCCCUCGGUAAUGGCGAAUGGGACCCA [G2A C48A] , self-cleavage: 0.17

Form field self-cleavage, entry GGCCGGCAUGGUCCCAGCCUCCUAGCUGGCGCCGGCUGGGCAACAUUCCGAGGGGACCGUCCCCUAGGUAAUGGCGAAUGGGACCCA [C24A C66A] : 0.764

The variant GGCCGGCAUGGUCCCAGCCUCCUCGCUGGCGCCGGCUGGGCAACAUUCCGAGGGGACCGUCCCCUCGGUAAGGGCUAAUGGGACCCA [U72G G76U] showed self-cleavage equal to 0.646

The recorded self-cleavage for entry GGCCGGCAUGAUCCCAGCCUCCCCGCUGGCGCCGGCUGGGCAACAUUCCGAGGGGACCGUCCCCUCGGUAAUGGCGAAUGGGACCCA [G11A U23C] equals 0.353

The variant listed as GGCCGGCAUGGUCCCAGCCUCCUCGCUGGCGCCGGCUGGGCAACAUUCCGAUGGGACCGUCCCCUCGGUAAUGUCGAAUGGGACCCA [G52U G74U] shows self-cleavage equal to 0.629

Measured self-cleavage of GGCCGGCAUGGUCUCAGCCUCCUCGCUGGCGCCGGCUGGGCAACAUUCCGAGGGGACCGUCCCCUCGGUAAAGGCGAAUGGGACCCA [C14U U72A] : 0.745

Item: GGCCGGCAUGGUCCCAGCCUCCUCGCUGGCGCUGGCUGGGCAACAUUCCGAGGGGAGCGUCCCCUCGGUAAUGGCGAAUGGGACCCA [C33U C57G] | self-cleavage: 1.04

What the record says about GGCCGGCAUGGUCCCAGCCUCCUCGCUGGCGCCGGCUGGGCAACAUUCCGAGGGGACCGUCCCCUCGGUAAUAGCGAAUGGGACGCA [G73A C85G] : self-cleavage is 0.703

The variant listed as GGCCGUCAUGGUCCCAGCCUCCUCGCUGGCGCCGGCUGGGCAACAUUCAGAGGGGACCGUCCCCUCGGUAAUGGCGAAUGGGACCCA [G6U C49A] shows self-cleavage equal to 0.582

The variant listed as GGCCGGCAUGGUCCCAGCCUCCUCGCUGGCGCCGGCUGGGCACCAUUCCGAGGGGACCGUCCCCUCGGUAAUGGCGAAUGAGACCCA [A43C G81A] has a reported self-cleavage of 0.248
